Details: in isobutanol, 293.15 K
ASSAY_READOUT: solubility (mole fraction)

1) CC(C)(C)C(=O)C(Oc1ccc(Cl)cc1)n1ccnc1 (stereo unspecified); 0.112

----------
Settings: in isobutanol, 308.15 K
ASSAY_READOUT: solubility (mole fraction)

1) CC(C)(C)C(=O)C(Oc1ccc(Cl)cc1)n1ccnc1 (stereo unspecified); 0.192

----------
Conditions: in n-butanol, 293.15 K
ASSAY_READOUT: solubility (mole fraction)

1) CC(C)(C)C(=O)C(Oc1ccc(Cl)cc1)n1ccnc1 (stereo unspecified); 0.131

----------
Settings: in ethyl acetate, 308.15 K
ASSAY_READOUT: solubility (mole fraction)

1. CC(C)(C)C(=O)C(Oc1ccc(Cl)cc1)n1ccnc1 (stereo unspecified); 0.172

Ref: BigSolDB 2.1
